target: UniProt O14920; assay: IKK-2 Resin Enzyme Assay (IKK-2 IC50 determination); conditions: rhIKK-2 homodimer; biotinylated IκBα peptide 5 μM, 1 μM ATP, 25° C., 30 min
Sequence (O14920 whole entry): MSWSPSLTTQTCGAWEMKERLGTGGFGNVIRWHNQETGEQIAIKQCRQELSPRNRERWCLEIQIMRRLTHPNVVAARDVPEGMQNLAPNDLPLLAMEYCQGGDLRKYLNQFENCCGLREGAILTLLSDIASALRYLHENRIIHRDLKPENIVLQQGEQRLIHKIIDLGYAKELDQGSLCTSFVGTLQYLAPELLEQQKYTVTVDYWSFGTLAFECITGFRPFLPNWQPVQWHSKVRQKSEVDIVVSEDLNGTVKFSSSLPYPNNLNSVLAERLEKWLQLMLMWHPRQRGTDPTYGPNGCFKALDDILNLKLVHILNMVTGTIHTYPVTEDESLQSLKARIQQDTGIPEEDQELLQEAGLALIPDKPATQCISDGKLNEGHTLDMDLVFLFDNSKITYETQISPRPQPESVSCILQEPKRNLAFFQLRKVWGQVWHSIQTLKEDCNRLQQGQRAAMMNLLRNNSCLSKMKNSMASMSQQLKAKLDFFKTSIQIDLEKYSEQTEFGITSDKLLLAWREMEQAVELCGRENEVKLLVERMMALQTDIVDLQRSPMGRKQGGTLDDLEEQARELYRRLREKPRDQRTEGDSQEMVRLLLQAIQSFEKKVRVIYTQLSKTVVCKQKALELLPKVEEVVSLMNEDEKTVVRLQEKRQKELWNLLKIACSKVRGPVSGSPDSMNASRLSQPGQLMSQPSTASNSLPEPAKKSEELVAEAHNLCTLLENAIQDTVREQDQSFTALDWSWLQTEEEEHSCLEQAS
Each entry below lists one item and its recorded pIC50 value.
Expect pIC50 as a plain number equal to -log10 of the molar concentration.

Nc1nc(-c2cc(F)ccc2O)cn(C2CCCNC2)c1=O (stereo not drawn) [Example 2] ... 6.04
Nc1nc(-c2ccccc2O)cn(C2CCCNC2)c1=O (stereo not drawn) [Example 1] ... 5.97

API: the following record is the query input.
Ask: Find the recorded pIC50 belonging to Nc1nc(-c2ccc(F)cc2O)cn(C2CCCNC2)c1=O (stereo not drawn) [Example 3] and report it.
Result: 5.75
